I'd be grateful if you could share measured NEUTROPHIL for these entries.
Species: Rattus norvegicus
Assay: DrugMatrix - Regimen: Daily Repeat
Type: toxicity, organism-based, Sprague-Dawley
Parameters: regimen Daily Repeat, gender Male, age 6-8 weeks
Conditions: in vivo, po, 0 mg/kg, 120 h, tissue Blood, route oral GAVAGE, dose level Control, time 5 day, […]
A bare number is not enough; add the unit after it.

Example entries and their recorded answers appear below.
Problem: For the molecule shown here, CC(=O)Nc1nnc(S(N)(=O)=O)s1 [ACETAZOLAMIDE] , give the reported NEUTROPHIL.
Solution: 5.5%

Problem: // next record CCn1cc(C(=O)O)c(=O)c2cc(F)c(N3CCNCC3)nc21 [ENOXACIN]
Solution: 16.5%

Problem: Same for C#C[C@]1(O)CC[C@H]2[C@@H]3CCc4cc(O)ccc4[C@H]3CC[C@@]21C [ETHINYL ESTRADIOL]
Solution: 16.5%

Problem: Query CC(C)Cc1ccc(CC(=O)O)cc1 [IBUFENAC] next
Solution: 13%

Problem: Then OCCN1CCN(CCCN2c3ccccc3Sc3ccc(C(F)(F)F)cc32)CC1 [FLUPHENAZINE] ?
Solution: 9.67%

Need NEUTROPHIL for each of these molecules.
1. CC[C@H](C)C(=O)O[C@H]1C[C@@H](C)C=C2C=C[C@H](C)[C@H](CC[C@@H]3C[C@@H](O)CC(=O)O3)[C@H]21 [LOVASTATIN]
2. CC(CCc1ccc(O)cc1)NCCc1ccc(O)c(O)c1 (centres undefined) [DOBUTAMINE]
3. CN(CCOc1ccc(CC2SC(=O)NC2=O)cc1)c1ccccn1 (centres undefined) [ROSIGLITAZONE]
4. COc1ncnc(NS(=O)(=O)c2ccc(N)cc2)c1OC [SULFADOXINE]

Solution:
["12%", "12.53%", "8.17%", "5.5%"]
